# TESTED SYSTEM: T1, His-tagged human TFR1 (transferrin receptor 1) protein (human, UniProt P02786 89-760)
# T1 construct: Bought protein; The order of the tag and the receptor part is not known; also called hTFR1-His; ACROBiosystems Cat #: CD1-H5243; not shown: His tag
# T1 sequence (P02786 89-760 limits assumed): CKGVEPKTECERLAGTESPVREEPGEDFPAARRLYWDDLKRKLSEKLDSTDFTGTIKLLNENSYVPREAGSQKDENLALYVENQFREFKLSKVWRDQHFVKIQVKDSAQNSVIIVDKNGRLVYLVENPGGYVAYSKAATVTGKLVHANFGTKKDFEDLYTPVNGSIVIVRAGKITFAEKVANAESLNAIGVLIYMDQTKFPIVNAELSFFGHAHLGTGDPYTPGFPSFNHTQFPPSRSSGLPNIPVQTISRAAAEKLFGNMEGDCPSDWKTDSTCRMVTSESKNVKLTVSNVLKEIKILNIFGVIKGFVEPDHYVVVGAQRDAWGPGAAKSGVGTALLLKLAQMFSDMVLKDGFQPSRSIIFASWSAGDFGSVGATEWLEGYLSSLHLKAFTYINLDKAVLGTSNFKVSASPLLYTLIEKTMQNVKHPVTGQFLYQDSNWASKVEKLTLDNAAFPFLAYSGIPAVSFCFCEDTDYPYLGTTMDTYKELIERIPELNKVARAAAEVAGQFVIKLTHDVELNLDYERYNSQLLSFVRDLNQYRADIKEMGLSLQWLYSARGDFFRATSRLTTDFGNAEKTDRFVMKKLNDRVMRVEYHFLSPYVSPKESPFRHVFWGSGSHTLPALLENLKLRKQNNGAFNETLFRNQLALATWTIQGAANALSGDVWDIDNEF
# ASSAY NAME: SPR, Biacore 8K; antibody captured on Protein A chip, hTFR1-His as analyte; 1:1 Langmuir fit
Please go through the items and note down their koff.
Your answer should be a plain number; it is taken to be in s⁻¹.

Given the entry 24C9 (antibody, human IgG1, V domains shown, Heavy-chain antibody without light chain; also called anti-TFR1 antibody 24C9) VH: EVQLVQSGGGVVQPGRSLRLSCAASGFTLSSYGMYWVRQAPGKGREWVAFIRFDESKKYYADSVKGRFTISRDNSKNTLYLQMNSLRAEDTAVYYCARDGEGGYCTNGVCHGLDVWGQGTTVTVSS , report its measured koff.
0.000383

And then 23B8 (antibody, V domains shown, Heavy-chain antibody without light chain; also called anti-TFR1 antibody 23B8) VH: QVTLKESGGGLVKPGGSLRLSCAASGFPFSNAWMNWVRQAPGKGLEWVGHIKSKTDGGTTDYAAPVKGRFTISRDDSKNMVFLQMNSLKTEDTAVYYCTTDRAYCGGDCSHYYYHDLDVWGQGTTVTVSS , what is it?
0.000132

What do we get for 24G5 (antibody, human IgG1, V domains shown, Heavy-chain antibody without light chain; also called anti-TFR1 antibody 24G5) VH: QLQLQESGGGLVQPGGSLRLTCAASGFTFSSFAMSWVRQAPGKGLERVSEISDSGGNTYYADSVKGRFTISRDNSKNTLYLQMNSLRAEDTAVYYCAKDDSSGWAFNIWDQGTVVTVSS ?
8.68e-05

Again, but for 24A1 (antibody, human IgG1, V domains shown, Heavy-chain antibody without light chain; also called anti-TFR1 antibody 24A1) VH: EVQLVESGGGLVQPGGSLRLTCAASGFTFSSYAMSWVRQAPGKGLERVSEISGSGSSTNYADSVKGRFTISRDNSKNTLYLQMNSLRAEDTAVYYCAKDDSSGWAFNIWDQGTVVTVSS
7.68e-05

These measurements were taken from patent US20260078197A1.
